System: CCRF-CEM leukemia
Experiment: NCI tumour cell line growth inhibition, 48 h
measuredParameter: GI50

# compound, targetOrTestSystem, result
measured = [
    ("COc1cccc2c1c(C(=O)C(=O)Nc1cc(C)no1)cn2Cc1ccc(F)cc1", "CCRF-CEM leukemia", "6240 nM"),
    ("O=C(O)/C=C\\C(=O)N1C/C(=C\\c2ccccc2Cl)C(=O)/C(=C/c2ccccc2Cl)C1", "CCRF-CEM leukemia", "1430 nM"),
    ("C1C[OH+]CC[OH+]CCNCC[OH+]CC[OH+]CCN1.N.[Cl-].[Pt+4]", "CCRF-CEM leukemia", "620 nM"),
    ("COc1ccc(/C(C#N)=C/c2ccccc2OC)cc1", "CCRF-CEM leukemia", "3340 nM"),
    ("CCCC(C)c1cc(Cc2cc(Cl)cc(Cl)c2O)c(O)c(Cc2cc(Cl)cc(Cl)c2O)c1 (stereo unspecified)", "CCRF-CEM leukemia", "432 nM"),
    ("COc1ccc(-c2nn3c(-c4cc(F)c(Cl)cc4Cl)nnc3s2)cc1", "CCRF-CEM leukemia", "28800 nM"),
]

====

# TGI per entry
System: MCF7 breast
Experiment: NCI tumour cell line growth inhibition, 48 h
measuredParameter: TGI

# molecule, measuredParameter, result
records = [
    ("CCOC(=O)C(=[N+]=[N-])C(=O)C1(C(=O)OCC)CCN(C(=O)c2ccccc2)C1=O (stereo unspecified)", "TGI", "> 100 µM"),
    ("COc1cccc2c1c(C(=O)C(=O)Nc1cc(C)no1)cn2Cc1ccc(F)cc1", "TGI", "> 90.6 µM"),
    ("CN1CCC(n2cnc(-c3ccc(F)cc3)c2-c2ccnc(NCCO)n2)CC1", "TGI", "> 25 µM"),
    ("O=C(CCCCCCC(=O)Nc1ccc(N(CCCl)CCCl)cc1)NO", "TGI", "24.3 µM"),
    ("Cc1nc(N)nc(N)c1-c1ccc(Cl)c(Cl)c1", "TGI", "> 100 µM"),
    ("CCCNC(=O)c1cc(NC(=O)c2cc(NC(=O)/C=C/c3ccccc3)c(OC)c(OC)c2)c(OC)c(OC)c1", "TGI", "28.5 µM"),
    ("CN(C)CCCNC(CC#N)CCC#N (stereo unspecified)", "TGI", "> 10 µM"),
    ("O=Nc1c(O)cc(Nc2ccc(Br)cc2)c2ccccc12", "TGI", "17.8 µM"),
    ("CC1OC(O[C@@H]2OC=C(C=O)[C@@]3(O)CC[C@H](C)[C@@H]23)C(O)C(O)C1O (stereo partly specified)", "TGI", "> 100 µM"),
    ("COc1ccc(-c2csc(N(C(=O)N3CCN(c4cc5c(cc4F)c(=O)c(C(=O)O)cn5C4CC4)CC3)c3ccccc3)n2)cc1", "TGI", "> 100 µM"),
    ("O=C(/C=C/c1csc(-c2ccccc2)n1)NCc1ccc(C(=O)NCCc2ccccc2)cc1", "TGI", "> 100 µM"),
    ("N#CC12C(=O)N3C(=NC(c4ccccc4)NC3c3ccccc3)C1(C#N)C(c1ccccc1)NC1=C2CCC1 (stereo unspecified)", "TGI", "> 100 µM"),
    ("COC(=O)C1=CC2CCCC1(O)C(C(C)=O)C2 (stereo unspecified)", "TGI", "> 100 µM"),
    ("CCCC(=O)OC1C(C(O)CO)OC2OC(C)(C)OC21 (stereo unspecified)", "TGI", "> 100 µM"),
    ("O=S(=O)(O)c1ccc(O)c2ncc(Cl)cc12", "TGI", "> 100 µM"),
    ("O=C(CCCN1CCC2(CC1)OC(=O)N(c1ccccc1)C2=O)c1ccccc1", "TGI", "> 100 µM"),
    ("Cc1ccc(-c2cn3ccnc3c(-c3ccc(Cl)cc3)n2)cc1", "TGI", "19.2 µM"),
    ("COc1cccc(-n2ncc3c(N/N=C/c4ccc(C(=O)NCCN(C)C)cc4)ncnc32)c1", "TGI", "6.82 µM"),
    ("CC[C@H]1C=CCC[C@@]2(C[C@@H]3CC[C@@H]4[C@H](C(=O)OCCCCCCCCCCCCCCCC(=O)O)[C@]5(CCC[C@@H](C)O5)NC(=[N+]34)N2)O1", "TGI", "4.95 µM"),
    ("CCS(=O)(=O)Nc1ccc(Nc2c3ccccc3nc3ccccc23)c(OC)c1", "TGI", "6.15 µM"),
    ("NCCOCCOCCNc1nc(Cc2ccccc2)nc(NCCCN2CCCC2=O)n1", "TGI", "> 100 µM"),
    ("NC(=O)N/N=C1\\CCCCc2ccccc21", "TGI", "> 10 µM"),
    ("COc1cc(/C=C/C(=O)c2ccc(NS(=O)(=O)c3cc([N+](=O)[O-])ccc3C)cc2)cc(OC)c1OC", "TGI", "9.72 µM"),
    ("NC(=O)NNc1nc2ccccc2c(=O)n1NC(=O)C(=O)Nc1ccc(Cl)cc1Cl", "TGI", "> 100 µM"),
    ("O=c1cc(-c2ccccc2)[nH]c2ccccc12", "TGI", "> 100 µM"),
    ("C=CCNc1nc(C#N)c(N)s1", "TGI", "> 10 µM"),
]

====

Tested on: HCC-2998 colon
Experiment: NCI tumour cell line growth inhibition, 48 h

# molecule, TGI
measured = [
    ("O=c1c2nn3c(=O)n(-c4ccccc4)c(=O)c3nn2c(=O)n1-c1ccccc1", "> 100 µM"),
    ("CC1OC(O[C@@H]2OC=C(C=O)[C@@]3(O)CC[C@H](C)[C@@H]23)C(O)C(O)C1O (stereo partly drawn)", "> 100 µM"),
    ("COc1ccc(-c2nn3c(-c4cc(F)c(Cl)cc4Cl)nnc3s2)cc1", "48.7 µM"),
]

====

System: CCRF-CEM leukemia
Test: NCI tumour cell line growth inhibition, 48 h
Where a SMILES comes first, the peptide text is derived from it. [ ]: non-standard residue; d: D form. The star is where a group is joined. X28 = COC1=CC(=O)N(C(=O)[C@@H](O*)C(C)C)[C@H]1Cc1ccccc1; NMeV = CN[C@H](C(=O)O)C(C)C; Hexanoyl = CCCCCC(=O)*
# TGI annotations
measuredParameter: TGI

# molecule, measuredParameter, result
data = [
    ("CC1SC(c2ccccc2)N(CCc2cccs2)C1=O (centres undefined)", "TGI", "35.2 µM"),
    ("COc1ccc2nc(-c3ccc(-c4noc(-c5cc(OC)c(OC)c(OC)c5)n4)cc3)[nH]c2c1", "TGI", "> 100 µM"),
    ("CCCCCCCCCCCCCCCCN1CC2CCCCC2C1 (centres undefined)", "TGI", "6.56 µM"),
    ("Cc1nc(N)nc(N)c1-c1ccc(Cl)c(Cl)c1", "TGI", "> 100 µM"),
    ("COc1ccc2c(C)cc(N/N=C(\\C)C=O)nc2c1", "TGI", "4 µM"),
    ("CCCCCC(=O)N[C@H](C(=O)N[C@H](C(=O)N(C)[C@H](C(=O)N1CCC[C@H]1C(=O)N1CCC[C@H]1C(=O)O[C@H](C(=O)N1C(=O)C=C(OC)[C@@H]1Cc1ccccc1)C(C)C)C(C)C)C(C)C)C(C)C (Hexanoyl-VV[NMeV]PP-X28)", "TGI", "> 100 µM"),
    ("C[C@H](OCc1ccccc1)C(=O)N1CCS(=O)(=O)N2CCC[C@H]2C1=O", "TGI", "> 100 µM"),
    ("COc1ccc(C2=Nc3ccccc3NC(=O)C2)cc1", "TGI", "> 100 µM"),
    ("O=S(=O)(O)c1ccc2cccc(N=Nc3c(O)ccc4ccccc34)c2c1", "TGI", "> 100 µM"),
    ("COc1ccc2nc(-n3c(/C=C/c4ccccc4O)nc4ccccc4c3=O)sc2c1", "TGI", "> 100 µM"),
    ("CCN(CC)CCCNc1nc(=O)[nH]c(C)c1C(=O)Nc1cccc2cc3ccccc3cc12", "TGI", "> 100 µM"),
    ("CC1SC2=NC3=C(c4ccccc4C3=O)C(c3ccc(F)cc3)N2C1=O (centres undefined)", "TGI", "> 100 µM"),
    ("CN(C)CCCNC(CC#N)CCC#N (centres undefined)", "TGI", "> 10 µM"),
    ("COC(=O)C(CC12CC3CC(CC(C3)C1)C2)NC(=O)C(N)CC(=O)O (centres undefined)", "TGI", "> 100 µM"),
]

====

Tested on: TK-10 renal
Test: NCI tumour cell line growth inhibition, 48 h
Documented TGI across a set of compounds
measuredParameter: TGI

# compound, result
records = [
    ("N=c1oc2cc(O)ccc2cc1C(=O)NCc1ccccc1", "> 100 µM"),
    ("N=C(N)c1ccc(-c2ccc(-c3cc(Cl)cc(Cl)c3)o2)nc1", "3.5 µM"),
    ("CCOC(=O)c1ccc(N=C2C(=S)N(c3ccc(C(=O)OCC)cc3)C(=N)N2/N=C/c2ccccc2)cc1", "62.2 µM"),
    ("Cc1cc(N(CCCl)CCCl)ccc1C=Nc1ccc(-c2csc(Cc3ccccc3)n2)cc1", "62.5 µM"),
    ("CC1(C)CC(=O)c2c(C(F)(F)F)nn(-c3ccc(C(N)=O)c(NC4CCC(OC(=O)CN)CC4)c3)c2C1 (configuration not stated)", "> 100 µM"),
    ("COc1ccc2sc3c(NCCCN(C)C)nc4ccccc4c3c(=O)c2c1", "3.31 µM"),
    ("O=C(CSc1nnc(-c2ccc(N=Cc3ccc(Cl)cc3)cc2)o1)Nc1ccc(Cl)cc1Cl", "> 100 µM"),
    ("N=c1c2c(C(N)=O)cn(C3OC(CO)C(O)C3O)c2ncn1O (configuration not stated)", "0.426 µM"),
    ("COC(=O)C(CC12CC3CC(CC(C3)C1)C2)NC(=O)C(N)CC(=O)O (configuration not stated)", "> 100 µM"),
    ("C[n+]1c2ccccc2c(C(=O)Nc2ccc(S(=O)(=O)Nc3ccnn3-c3ccccc3)cc2)c2ccccc21", "> 100 µM"),
    ("CCCCC(CC)CN=C(N)NC(N)=NCCCCCCN=C(N)NC(N)=NCC(CC)CCCC (configuration not stated)", "> 100 µM"),
    ("CC1(C)C(=NNC(=O)C[N+](C)(C)C)C(C)(C)C1=NNC(=O)C[N+](C)(C)C", "> 100 µM"),
    ("COC(=O)c1ccccc1CC1Cc2ccc3c(c2C1=O)CCC3 (configuration not stated)", "> 100 µM"),
    ("CCOP(=O)(OCC)C1CC(O)C(=O)N1 (configuration not stated)", "> 100 µM"),
    ("Cc1[nH]ccc2c1[nH]c1cc(=O)ccc12", "> 100 µM"),
    ("C[C@]12CC[C@@H]3c4ccc(OP(=O)(O)O)cc4CC[C@H]3[C@@H]1CCC2=O", "> 100 µM"),
    ("COc1ccc(-c2nn3c(-c4cc(F)c(Cl)cc4Cl)nnc3s2)cc1", "> 100 µM"),
]
